Consider the following compounds and their measured inhibition readings.
molecular target: UniProt:P29274; assay: Displacement of [3H]CGS21680 from human recombinant adenosine A2A receptor expressed in HEK293 cells at 10 uM after 60 mins by liquid scintillation counting; assay type: cell-based
Sequence (P29274 whole entry): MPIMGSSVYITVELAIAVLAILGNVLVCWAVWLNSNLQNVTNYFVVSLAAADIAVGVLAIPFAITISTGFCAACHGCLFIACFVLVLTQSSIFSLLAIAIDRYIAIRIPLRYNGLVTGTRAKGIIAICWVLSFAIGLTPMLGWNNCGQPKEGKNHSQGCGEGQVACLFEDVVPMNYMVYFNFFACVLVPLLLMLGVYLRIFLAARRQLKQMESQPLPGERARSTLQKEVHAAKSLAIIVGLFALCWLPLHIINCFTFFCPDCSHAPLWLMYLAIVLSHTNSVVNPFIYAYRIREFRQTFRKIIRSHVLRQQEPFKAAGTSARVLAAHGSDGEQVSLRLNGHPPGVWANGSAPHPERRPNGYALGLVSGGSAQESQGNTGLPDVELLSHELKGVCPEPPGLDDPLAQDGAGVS
parameterMeasured: inhibition (%)

INSERT INTO measurements (testsmiles, resultnumber) VALUES
  ('CNC(=O)[C@@]12C[C@@H]1[C@@H](n1cnc3c(NC)nc(C#Cc4cccc(N)c4)nc31)[C@H](O)[C@@H]2O', 19),
  ('CNC(=O)[C@@]12C[C@@H]1[C@@H](n1cnc3c(NC)nc(C#Cc4ccc(C(C)(C)C)cc4)nc31)[C@H](O)[C@@H]2O', 7),
  ('CNC(=O)[C@@]12C[C@@H]1[C@@H](n1cnc3c(NC)nc(C#Cc4ccccc4)nc31)[C@H](O)[C@@H]2O', 14);

----------
Molecular target: Adenosine receptor A3 (Homo sapiens) (UniProt P0DMS8)
Sequence (whole entry): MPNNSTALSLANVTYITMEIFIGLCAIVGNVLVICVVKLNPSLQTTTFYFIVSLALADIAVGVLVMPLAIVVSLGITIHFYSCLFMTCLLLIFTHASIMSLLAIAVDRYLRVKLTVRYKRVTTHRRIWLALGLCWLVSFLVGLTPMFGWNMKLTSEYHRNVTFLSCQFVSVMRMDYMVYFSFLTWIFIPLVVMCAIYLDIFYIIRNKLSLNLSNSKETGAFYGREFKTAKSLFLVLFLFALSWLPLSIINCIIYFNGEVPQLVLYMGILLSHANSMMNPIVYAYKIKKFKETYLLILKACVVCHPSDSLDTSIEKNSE
Assay: Agonist activity at human recombinant adenosine A3 receptor expressed in CHO cells assessed as inhibition of forskolin-stimulated cAMP production at 10 uM incubated for 30 mins prior to forskolin-stimulation measured after 15 mins by enzyme immunoassay relative to NECA
Type: functional, cell-based
// assign met if Efficacy falls strictly below 90%, else not met (ties count as not met)

INSERT INTO measurements (testsmiles, studysystem, classification) VALUES
  ('CNC(=O)[C@@]12C[C@@H]1[C@@H](n1cnc3c(NC)nc(C#Cc4cc(F)cc(F)c4)nc31)[C@H](O)[C@@H]2O', 'Adenosine receptor A3 (Homo sapiens) (UniProt P0DMS8)', 'not met'),
  ('CNC(=O)[C@@]12C[C@@H]1[C@@H](n1cnc3c(NC)nc(C#Cc4ccc(Br)cc4)nc31)[C@H](O)[C@@H]2O', 'Adenosine receptor A3 (Homo sapiens) (UniProt P0DMS8)', 'not met'),
  ('CNC(=O)[C@@]12C[C@@H]1[C@@H](n1cnc3c(NCc4cccc(Cl)c4)nc(C#Cc4ccc5ccc6cccc7ccc4c5c67)nc31)[C@H](O)[C@@H]2O', 'Adenosine receptor A3 (Homo sapiens) (UniProt P0DMS8)', 'met'),
  ('CNC(=O)[C@@]12C[C@@H]1[C@@H](n1cnc3c(NC)nc(C#Cc4ccc(F)c(F)c4)nc31)[C@H](O)[C@@H]2O', 'Adenosine receptor A3 (Homo sapiens) (UniProt P0DMS8)', 'not met'),
  ('CNC(=O)[C@@]12C[C@@H]1[C@@H](n1cnc3c(NCc4cccc(Cl)c4)nc(C#Cc4cccc(C(=O)O)c4)nc31)[C@H](O)[C@@H]2O', 'Adenosine receptor A3 (Homo sapiens) (UniProt P0DMS8)', 'met'),
  ('CNC(=O)[C@@]12C[C@@H]1[C@@H](n1cnc3c(NC)nc(C#Cc4ccccc4F)nc31)[C@H](O)[C@@H]2O', 'Adenosine receptor A3 (Homo sapiens) (UniProt P0DMS8)', 'not met'),
  ('CNC(=O)[C@@]12C[C@@H]1[C@@H](n1cnc3c(NC)nc(C#Cc4ccc(C(C)(C)C)cc4)nc31)[C@H](O)[C@@H]2O', 'Adenosine receptor A3 (Homo sapiens) (UniProt P0DMS8)', 'met');
